# TEST_NAME: Pharmacokinetic study of 153 (and metabolite endothal) in SD rats, iv and po; plasma, liver, brain
# Assay type: in vivo
# TEST_CONDITIONS: female, SD, rat, in vivo, iv, 1.25 mg/kg, 153 iv 1.25 mg/kg; read-out: mean Cmax of 153 in plasma
REPORTED_ENDPOINT: Cmax (µg/mL)

* CCCOC(=O)C1C2CCC(O2)C1C(=O)N1CCN(C)CC1 (stereo not shown) | 0.557

---

# TEST_NAME: in vivo
# TEST_CONDITIONS: female, SD, rat, in vivo, iv, 1 mg/kg
REPORTED_ENDPOINT: AUC(0-inf)

- CN1CCN(C(=O)C2C3CCC(O3)C2C(=O)O)CC1 (stereo not shown): 2830 ng·h/mL

---

# TEST_NAME: Pharmacokinetic study of 157 (and metabolite endothal) in SD rats, iv and po; plasma, liver, brain
# Format: in vivo
# TEST_CONDITIONS: female, SD, rat, in vivo, iv, 1.5 mg/kg, 157 iv 1.5 mg/kg; read-out: T1/2 of 157 in plasma (converted)
REPORTED_ENDPOINT: half-life

• CCCCCCCOC(=O)C1C2CCC(O2)C1C(=O)N1CCN(C)CC1 (stereo not shown) [Compound 157] = 23.5 min

---

# TEST_NAME: Pharmacokinetic study of 157 (and metabolite endothal) in SD rats, iv and po; plasma, liver, brain
# Format: in vivo
# TEST_CONDITIONS: female, Sprague-Dawley (SD), rat, in vivo, iv, 1.5 mg/kg, 157 in Liver, iv 1.5 mg/kg, Mean; read-out: Cmax
REPORTED_ENDPOINT: Cmax (ng/g)

* CCCCCCCOC(=O)C1C2CCC(O2)C1C(=O)N1CCN(C)CC1 (stereo not shown) | 297

---

# TEST_NAME: in vivo
# Parameters: species or system SD rats
# TEST_CONDITIONS: male, Sprague-Dawley, rat, iv, 1.4 mg/kg, Liver-plasma concentration ratio of 113
# Experimental: 113 was dissolved in 4% NaHCO3 in saline for IV administration. The detailed procedure of dosing solution preparation was presented in Appendix I. 15 animals were placed on the study. The animals in IV arm were free access to food and water. For PO dose group, the animals were fasted overnight prior to dosing and the food was resumed 4 hours postdose. […] The PK parameters were determined by non-compartmental model of non-compartmental analysis tool, Pharsight Phoenix WinNonlin® 6.2 software. […]
REPORTED_ENDPOINT: Kp at 1 h

• CN1CCN(C(=O)C2C(C(=O)OCC(Cl)(Cl)Cl)[C@H]3CC[C@@H]2O3)CC1 (stereo partly shown) = 1.27

---

# TEST_NAME: in vivo
# TEST_CONDITIONS: female, Sprague-Dawley (SD), rat, in vivo, iv, 1.5 mg/kg, 100 brain concentration
REPORTED_ENDPOINT: concentration at 6 h (ng/g)

• CN1CCN(C(=O)C2C3CCC(O3)C2C(=O)O)CC1 (stereo not shown) [Compound 100] = 4.23

---

# TEST_NAME: in vivo
# TEST_CONDITIONS: male, Sprague-Dawley, rat, in vivo, po, 10 mg/kg, Tmax of 100
REPORTED_ENDPOINT: Tmax (min)

* CN1CCN(C(=O)C2C3CCC(O3)C2C(=O)O)CC1 (stereo not shown) | 30

---

# TEST_NAME: Pharmacokinetic study of 153 (and metabolite endothal) in SD rats, iv and po; plasma, liver, brain
# Format: in vivo
# TEST_CONDITIONS: female, SD, rat, in vivo, iv, 1.25 mg/kg, Liver, 1.25 mg/kg IV, rat 1; read-out: MRT (0-t)
REPORTED_ENDPOINT: MRT last (min)

* CCCOC(=O)C1C2CCC(O2)C1C(=O)N1CCN(C)CC1 (stereo not shown) | 44.7

---

# TEST_NAME: Pharmacokinetic study of 157 (and metabolite endothal) in SD rats, iv and po; plasma, liver, brain
# Format: in vivo
# TEST_CONDITIONS: female, Sprague-Dawley (SD), rat, in vivo, iv, 1.5 mg/kg, iv 1.5 mg/kg, 2 hr, Rat 2; read-out: 157 liver concentration
REPORTED_ENDPOINT: concentration at 2 h (ng/g)

* CCCCCCCOC(=O)C1C2CCC(O2)C1C(=O)N1CCN(C)CC1 (stereo not shown) | 9.72

---

# TEST_NAME: in vivo
# TEST_CONDITIONS: female, Sprague-Dawley (SD), rat, in vivo, iv, 0.5 mg/kg, 100 brain concentration
# Experimental: 100 was administrated via iv route at 0.5, 1.0 and 1.5 mg/kg into SD rats. The blood, liver and brain tissue samples were collected at predetermined times from rats. Twelve (12) female SD rats per group were dosed by iv with 100. The rats were fasted overnight prior to dosing, with free access to water. Foods were withheld for 2 hours post-dose. Blood, liver and brain tissue samples in two animals each group were collected at each time point, within 10% of the scheduled time for each time point. […]
REPORTED_ENDPOINT: concentration at 0.25 hr

* CN1CCN(C(=O)C2C3CCC(O3)C2C(=O)O)CC1 (stereo not shown) [Compound 100] | 17.4 ng/g

---

# TEST_NAME: Pharmacokinetic study of 153 (and metabolite endothal) in SD rats, iv and po; plasma, liver, brain
# Assay type: in vivo
# TEST_CONDITIONS: female, SD, rat, in vivo, iv, 1.25 mg/kg, iv 1.25 mg/kg, 0.25 hr, Rat 2; read-out: 153 plasma concentration
REPORTED_ENDPOINT: concentration at 0.25 h (ng/mL)

• CCCOC(=O)C1C2CCC(O2)C1C(=O)N1CCN(C)CC1 (stereo not shown) = 550

---

# TEST_NAME: in vivo
# TEST_CONDITIONS: female, Sprague-Dawley, rat, in vivo, iv, 1 mg/kg, 100 plasma concentration
REPORTED_ENDPOINT: concentration at 1 h

• CN1CCN(C(=O)C2C3CCC(O3)C2C(=O)O)CC1 (stereo not shown) [Compound 100] = 0.354 µg/mL

---

# TEST_NAME: Pharmacokinetic study of 153 (and metabolite endothal) in SD rats, iv and po; plasma, liver, brain
# Type: in vivo
# TEST_CONDITIONS: female, SD, rat, in vivo, iv, 1.25 mg/kg, 153 in plasma, IV 1.25 mg/kg, rat 1; read-out: Cmax
REPORTED_ENDPOINT: Cmax (ng/mL)

- CCCOC(=O)C1C2CCC(O2)C1C(=O)N1CCN(C)CC1 (stereo not shown): 563

---

# TEST_NAME: in vivo
# Parameters: species or system SD rats
# TEST_CONDITIONS: male, Sprague-Dawley, rat, iv, 1.4 mg/kg
REPORTED_ENDPOINT: Tmax

• CN1CCN(C(=O)C2C(C(=O)OCC(Cl)(Cl)Cl)[C@H]3CC[C@@H]2O3)CC1 (stereo partly shown) = 15 min

---

# TEST_NAME: Pharmacokinetic study of 157 (and metabolite endothal) in SD rats, iv and po; plasma, liver, brain
# Assay type: in vivo
# TEST_CONDITIONS: female, SD (Sprague-Dawley), rat, in vivo, iv, 1.5 mg/kg, 157 in plasma, IV 1.5 mg/kg, rat 1
REPORTED_ENDPOINT: AUC(0-inf) (ng·h/mL)

- CCCCCCCOC(=O)C1C2CCC(O2)C1C(=O)N1CCN(C)CC1 (stereo not shown): 47.1

---

# TEST_NAME: Pharmacokinetic study of 153 (and metabolite endothal) in SD rats, iv and po; plasma, liver, brain
# Type: in vivo
# TEST_CONDITIONS: female, SD, rat, in vivo, po, 1.25 mg/kg, 153 po 1.25 mg/kg; read-out: Cmax of 153 in plasma
REPORTED_ENDPOINT: Cmax (ng/mL)

* CCCOC(=O)C1C2CCC(O2)C1C(=O)N1CCN(C)CC1 (stereo not shown) | 239

---

# TEST_NAME: Pharmacokinetic study of 153 (and metabolite endothal) in SD rats, iv and po; plasma, liver, brain
# Type: in vivo
# TEST_CONDITIONS: female, SD, rat, in vivo, iv, 1.25 mg/kg, 153 in plasma, IV 1.25 mg/kg, Mean; read-out: AUC
REPORTED_ENDPOINT: AUC (ng·h/mL)

• CCCOC(=O)C1C2CCC(O2)C1C(=O)N1CCN(C)CC1 (stereo not shown) = 295

---

# TEST_NAME: Pharmacokinetic study of 153 (and metabolite endothal) in SD rats, iv and po; plasma, liver, brain
# Type: in vivo
# TEST_CONDITIONS: female, Sprague-Dawley (SD), rat, in vivo, iv, 1.25 mg/kg, Liver, 1.25 mg/kg IV, rat 2; read-out: T1/2 (converted)
REPORTED_ENDPOINT: half-life (min)

* CCCOC(=O)C1C2CCC(O2)C1C(=O)N1CCN(C)CC1 (stereo not shown) | 38.6

Where do the numbers come from? From patent US20160264593A1.
